Give measured IC50, TF-1 cell proliferation for each item. Keep answers brief.
Target: T1, human GM-CSFRα, full length on cells (human, UniProt P15509 23-400)
T1 sequence: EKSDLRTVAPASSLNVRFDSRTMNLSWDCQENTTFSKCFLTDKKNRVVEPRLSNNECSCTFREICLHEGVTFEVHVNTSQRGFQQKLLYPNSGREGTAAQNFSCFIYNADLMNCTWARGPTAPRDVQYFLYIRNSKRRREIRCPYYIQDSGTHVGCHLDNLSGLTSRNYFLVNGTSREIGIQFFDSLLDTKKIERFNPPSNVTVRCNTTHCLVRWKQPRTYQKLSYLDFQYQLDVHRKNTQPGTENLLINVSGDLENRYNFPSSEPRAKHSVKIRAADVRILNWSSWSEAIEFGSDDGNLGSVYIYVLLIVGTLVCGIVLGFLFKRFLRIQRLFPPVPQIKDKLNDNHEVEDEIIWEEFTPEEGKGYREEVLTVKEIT
Assay: cell-based or functional assay
Answers are plain numbers, in µg/mL.

Reference set (2 entries):
{"Binder": "E35-scFv LY32Q (scFv, V domains shown) VH: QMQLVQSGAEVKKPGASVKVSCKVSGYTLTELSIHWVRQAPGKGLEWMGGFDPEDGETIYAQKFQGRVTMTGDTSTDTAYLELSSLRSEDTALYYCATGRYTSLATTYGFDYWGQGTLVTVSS VL: EIVMTQSPATLSLSPGERATLSCRASQSVSSQLAWYQQKPGQAPRLLIYGASSRATGIPDRFSGSGSGTDFTLTISRLEPEDFAVYYCQQYDNWPYTFGQGTKLEIK", "IC50, TF-1 cell proliferation, µg/mL": 0.87}
{"Binder": "E35-scFv LY32V (scFv, V domains shown) VH: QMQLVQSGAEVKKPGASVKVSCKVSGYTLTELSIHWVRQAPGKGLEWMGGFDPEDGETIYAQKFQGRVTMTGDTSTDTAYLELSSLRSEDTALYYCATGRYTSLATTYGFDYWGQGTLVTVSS VL: EIVMTQSPATLSLSPGERATLSCRASQSVSSVLAWYQQKPGQAPRLLIYGASSRATGIPDRFSGSGSGTDFTLTISRLEPEDFAVYYCQQYDNWPYTFGQGTKLEIK", "IC50, TF-1 cell proliferation, µg/mL": 1.23}

Moving on to the next binder.
If you can, please state the reported IC50, TF-1 cell proliferation value of E35-scFv LS26A (scFv, V domains shown) VH: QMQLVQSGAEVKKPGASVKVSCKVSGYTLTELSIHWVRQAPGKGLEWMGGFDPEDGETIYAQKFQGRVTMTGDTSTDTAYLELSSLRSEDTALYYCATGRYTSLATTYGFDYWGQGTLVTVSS VL: EIVMTQSPATLSLSPGERATLSCRAAQSVSSYLAWYQQKPGQAPRLLIYGASSRATGIPDRFSGSGSGTDFTLTISRLEPEDFAVYYCQQYDNWPYTFGQGTKLEIK . 0.062

The reported measurements were obtained from patent US20230002496A1.
